- experimental-target: murine CD38 (Mus musculus, UniProt P56528)
- Construct: from tissue; host or cells: WT ICR mouse tissues (brain, liver, lung, heart, kidney, spleen, ileum, skeletal muscle)
- Sequence (P56528 1-304): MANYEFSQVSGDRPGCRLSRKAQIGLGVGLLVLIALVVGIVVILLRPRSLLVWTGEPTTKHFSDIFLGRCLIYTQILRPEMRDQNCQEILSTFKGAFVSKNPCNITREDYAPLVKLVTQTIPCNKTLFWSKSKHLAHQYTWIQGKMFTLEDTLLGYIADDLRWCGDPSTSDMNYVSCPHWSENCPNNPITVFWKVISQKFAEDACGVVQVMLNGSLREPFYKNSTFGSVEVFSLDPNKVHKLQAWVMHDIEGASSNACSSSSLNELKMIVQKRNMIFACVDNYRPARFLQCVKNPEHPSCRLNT
- experimental-details: CD38 hydrolase activity in tissues from WT mice
- Format: biochemical
- assay-conditions: Kidney, WT mice; Figure 1E
property-measured: Ki (µM)

structure_smiles=O=c1[nH]c(=O)c2[nH]c(=O)[nH]c2[nH]1 property_measured=Ki reported_measurement=84.7
